Below: a set of entries, each annotated with reported Kd.
# SYSTEM_NAME: T1, human PCSK9 (proprotein convertase subtilisin kexin type 9) (human, UniProt Q8NBP7 31-692)
# T1 construct: Directly immobilized (SPR ProteOn), biotinylated (BLI), or in solution, depending on the assay; also called hPCSK9
# PROCEDURE_DETAILS: SPR ProteOn, PCSK9 immobilized, 25 C
Hi! Could you send only the number? It should be in nM, unit omitted.

Answered cases to consult:
>  <BINDER>
1459D05 (designed binder, also called ATI000891; ATI-891) MGVSDVPRDLEVVAATPTSLLISWPPPSHGYGYYRITYGETGGNSPVQEFTVPPGKGTATISGLKPGVDYTITVYAVEYPYKHSGYYHRPISINYRTEIDKPSQHHHHHH

>  <MEASUREMENT_LABEL>
Kd

>  <UNITS_TEXT>
nM

>  <MEASURED_NUMBER>
1.58

$$$$
>  <BINDER>
1922G04 (designed binder, Anti-PCSK9 Adnectin, His6-tagged; also called ATI001057; ATI-1057) MGVSDVPRDLEVVAATPTSLLISWRPPSHAYGYYRITYGETGGNSPVQEFTVPIGKGTATISGLKPGVDYTITVYAVEYPWKGSGYYHRPISINYRTEIDKPSQHHHHHH

>  <MEASUREMENT_LABEL>
Kd

>  <UNITS_TEXT>
nM

>  <MEASURED_NUMBER>
0.094

$$$$
>  <BINDER>
2012A04 (designed binder, Anti-PCSK9 Adnectin, His6-tagged) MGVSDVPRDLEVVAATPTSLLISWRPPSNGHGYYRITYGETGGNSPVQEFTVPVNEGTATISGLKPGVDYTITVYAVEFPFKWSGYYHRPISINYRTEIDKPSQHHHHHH

>  <MEASUREMENT_LABEL>
Kd

>  <UNITS_TEXT>
nM

>  <MEASURED_NUMBER>
0.251

$$$$

Task: Fill in the blank: the reported Kd of 2011H05 (designed binder, Anti-PCSK9 Adnectin, His6-tagged; also called ATI001091) MGVSDVPRDLEVVAATPTSLLISWVPSSHAYGYYRITYGETGGNSPVQEFTVPVGVGTATISGLKPGVDYTITVYAVEYAFEGAGYYHRPISINYRTEIDKPSQHHHHHH is ____.
Result: 0.079
